Ref: patent US10246461B2

- PROCEDURE DETAILS: Human PK, second comparative study: single dose food and PPI assessment of 100 mg powder-in-capsule (Panels J-M)
- Assay type: in vivo
- APPLIED CONDITIONS: plasma, oral, 100 mg, 100 mg PIC single dose, Panel K: high fat breakfast, no PPI, read-out: plasma Tmax, Median
READOUT LABEL: Tmax (h)
Write down the numeric answer in h and omit the unit.

-- ask Would you mind telling me what Tmax value was observed for C[C@H]1CN(C2COC2)CCN1c1ccc(Nc2cc(-c3ccnc(N4CCn5c(cc6c5CC(C)(C)C6)C4=O)c3CO)cn(C)c2=O)nc1 [Compound (I) free base] ?
-- reply 4

###

- PROCEDURE DETAILS: Human PK, second comparative study: single dose food and PPI assessment of 100 mg powder-in-capsule (Panels J-M)
- Assay type: in vivo
- APPLIED CONDITIONS: plasma, oral, 100 mg PIC single dose, Panel M: high fat breakfast + rabeprazole 20 mg BID, read-out: plasma AUC0-24, Mean
READOUT LABEL: AUC(0-t)
Please provide the amount together with its unit, number first.

-- ask Sample C[C@H]1CN(C2COC2)CCN1c1ccc(Nc2cc(-c3ccnc(N4CCn5c(cc6c5CC(C)(C)C6)C4=O)c3CO)cn(C)c2=O)nc1 [Compound (I) free base] — what was its AUC(0-t)?
-- reply 0.471 µM·h

###

- PROCEDURE DETAILS: Human PK, second comparative study: single dose food and PPI assessment of 100 mg powder-in-capsule (Panels J-M)
- Format: in vivo
- APPLIED CONDITIONS: plasma, oral, 100 mg, 100 mg PIC single dose, Panel K: high fat breakfast, no PPI, read-out: plasma AUC0-24, Median
READOUT LABEL: AUC(0-t) (µM·h)
Supply the numeric figure in µM·h, leaving out any unit text.

-- ask // AUC(0-t) lookup, key: C[C@H]1CN(C2COC2)CCN1c1ccc(Nc2cc(-c3ccnc(N4CCn5c(cc6c5CC(C)(C)C6)C4=O)c3CO)cn(C)c2=O)nc1 [Compound (I) free base]
-- reply 1.5

###

- PROCEDURE DETAILS: Human PK, second comparative study: single dose food and PPI assessment of 100 mg powder-in-capsule (Panels J-M)
- Format: in vivo
- APPLIED CONDITIONS: plasma, oral, 100 mg, 100 mg PIC single dose, Panel J: fasted, no PPI, read-out: plasma AUClast, Mean
READOUT LABEL: AUC(0-t) (µM·h)
// note: answer is a bare numeric in µM·h

-- ask What AUC(0-t) value was documented for this molecule, C[C@H]1CN(C2COC2)CCN1c1ccc(Nc2cc(-c3ccnc(N4CCn5c(cc6c5CC(C)(C)C6)C4=O)c3CO)cn(C)c2=O)nc1 [Compound (I) free base] ?
-- reply 1.06

###

- PROCEDURE DETAILS: Human PK, second comparative study: single dose food and PPI assessment of 100 mg powder-in-capsule (Panels J-M)
- Assay type: in vivo
- APPLIED CONDITIONS: plasma, oral, 100 mg, 100 mg PIC single dose, Panel J: fasted, no PPI, read-out: plasma Cmax, Median
- Excerpt: The protocol is detailed Table 24 below wherein each panel contained 10 human subjects.
READOUT LABEL: Cmax (nM)
Dear colleague, please return just the value in nM, with no unit written.

-- ask Bench note: what Cmax did C[C@H]1CN(C2COC2)CCN1c1ccc(Nc2cc(-c3ccnc(N4CCn5c(cc6c5CC(C)(C)C6)C4=O)c3CO)cn(C)c2=O)nc1 [Compound (I) free base] show?
-- reply 200
